Target: D(2) dopamine receptor (Homo sapiens)
Sequence (P14416 whole entry): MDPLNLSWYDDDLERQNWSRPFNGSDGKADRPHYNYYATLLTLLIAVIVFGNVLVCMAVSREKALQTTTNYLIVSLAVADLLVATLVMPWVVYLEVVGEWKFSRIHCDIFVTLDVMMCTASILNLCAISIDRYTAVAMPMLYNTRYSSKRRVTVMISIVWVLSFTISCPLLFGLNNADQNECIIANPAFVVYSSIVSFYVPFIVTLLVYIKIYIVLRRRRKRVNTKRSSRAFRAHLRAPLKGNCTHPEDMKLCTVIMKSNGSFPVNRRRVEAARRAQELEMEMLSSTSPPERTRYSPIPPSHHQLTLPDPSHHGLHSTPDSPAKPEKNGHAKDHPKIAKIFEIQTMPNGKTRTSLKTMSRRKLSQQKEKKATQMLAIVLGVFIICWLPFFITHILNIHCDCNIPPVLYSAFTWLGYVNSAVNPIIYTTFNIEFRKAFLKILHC
Experiment: Antagonist activity at human recombinant D2 receptor expressed in HEK293 cells by FLIPR assay
READOUT KIND: IC50

MOLECULE	REPORTED MEASUREMENT
Cc1cccc(/C(=N\O)C(O)CN2CCN(c3ccccn3)CC2)c1 (centres undefined)	> 10 µM
CO/N=C(/CCN1CCN(c2ccccn2)CC1)c1ccc(F)c(Cl)c1	> 10 µM
Cc1cccc(C(=O)NCN2CCN(c3ccccc3C#N)CC2)c1	> 10 µM
CO/N=C(/CCN1CCN(c2ccccn2)CC1)c1cccc(C#N)c1	> 10 µM
CO/N=C(/CCN1CCN(c2ccccn2)CC1)c1ccc(Cl)c(C)c1	> 10 µM

INPUT: Form field: reported IC50 of N#Cc1cccnc1N1CCN(CC/C(=N\O)c2ccccc2)CC1
OUTPUT: > 10 µM

INPUT: Form field: reported IC50 of CCO/N=C(\CCN1CCN(c2ncccc2C#N)CC1)c1ccccc1
OUTPUT: > 10 µM

INPUT: Form field: reported IC50 of CO/N=C(\CCN1CCCC(c2ccccn2)C1)c1ccc(Cl)cc1 (centres undefined)
OUTPUT: > 10 µM

# credit: ChEMBL document CHEMBL1145336
